Tested on: LNCaP tumor-transplanted mouse
Test: Internal radioactivity distribution using LNCaP tumor-transplanted mouse
Assay type: in vivo
Conditions: 48 h after administration
Assign Blood to each entry below.
Please state the figure in % ID/g; there is no need to write the unit.

For O=C([O-])CN1CCN(C(CCC(=O)NCCCC[C@H](NC(=O)N[C@@H](CCC(=O)O)C(=O)O)C(=O)O)C(=O)[O-])CCN(CC(=O)[O-])CCN(C(CCC(=O)Nc2ccccc2)C(=O)[O-])CC1.[111In+3] (stereo partly drawn) [[^111In]In-PSMA-DB, reference compound] the compound record lists Blood as 0.27

Entry O=C([O-])CN1CCN(C(CCC(=O)NCCC(=O)N2Cc3ccccc3-c3c(nnn3CCOCCOCCOCCOCCC(=O)NCCCC[C@H](NC(=O)N[C@@H](CCC(=O)O)C(=O)O)C(=O)O)-c3ccccc32)C(=O)[O-])CCN(CC(=O)[O-])CCN(C(CCC(=O)N[C@@H](CCCCNC(=O)CCCc2ccc(I)cc2)C(=O)O)C(=O)[O-])CC1.[111In+3] (stereo partly drawn) [[^111In]In-PtDA] ; Blood = 6.33

Lab note: O=C([O-])CN(Cc1cccc(C(=O)[O-])n1)C[C@H](Cc1ccc(NC(=O)[C@H](CCCCNC(=O)CCC(=O)NCCCC[C@H](NC(=O)N[C@@H](CCC(=O)O)C(=O)O)C(=O)O)NC(=O)CCCc2ccc(I)cc2)cc1)N(CC(=O)[O-])Cc1cccc(C(=O)[O-])n1.[111In+3] [[^111In]In-Octapa-2] gave Blood of 0.26
